test: Haemodynamic profile in anaesthetized rats; format: in vivo, rat; conditions: i.v. at Dhr^20, anaesthetized rat
In this section, each of the compounds is paired with its reported % effect of Dhr^20 on BP (mean arterial blood pressure).
Field: numeric (%). Do not append units.

Observe how each entry below is paired with its result.
compound	measured_number
COc1ccc(CCN(C)CCCN(c2ccc(OC)c(OC)c2)c2ncc([N+](=O)[O-])cc2[N+](=O)[O-])cc1OC	-10
COc1ccc(CCN(C)CCN(C(=O)NC(C)c2ccccc2)c2ccc(OC)c(OC)c2)cc1OC (centres unmarked)	-13
COc1ccc(CCN(C)CCCN(Cc2ccccc2[N+](=O)[O-])c2ccc(OC)c(OC)c2)cc1OC [Example E1]	0

Please fill in: % effect of Dhr^20 on BP (mean arterial blood pressure) reported for `CCCNC(=O)N(CCCN(C)CCc1ccc(OC)c(OC)c1)c1ccc(OC)c(OC)c1` = -4

Please fill in: % effect of Dhr^20 on BP (mean arterial blood pressure) reported for `CCCCOC(=O)N(CCCN(C)CCc1ccc(OC)c(OC)c1)c1ccc(OC)c(OC)c1` = -15

Please fill in: % effect of Dhr^20 on BP (mean arterial blood pressure) reported for `COc1ccc(CCN(C)CCCN(C(=O)CCc2ccccc2)c2ccc(OC)c(OC)c2)cc1OC` = -8

Please fill in: % effect of Dhr^20 on BP (mean arterial blood pressure) reported for `COc1ccc(CCN(C)CCCN(Cc2ccccc2)c2ccc(OC)c(OC)c2)cc1OC` = -6

* * *

In this section, each of the compounds is paired with its reported % effect of Dhr^20 on LVP (systolic left ventricular pressure).
test: Haemodynamic profile in anaesthetized rats; type: in vivo, rat; details: i.v. at Dhr^20, anaesthetized rat
Field: numeric (%). Do not append units.

compound	measured_number
COc1ccc(CCN(C)CCN(C(=O)NC(C)c2ccccc2)c2ccc(OC)c(OC)c2)cc1OC (centres unmarked)	-7

Please fill in: % effect of Dhr^20 on LVP (systolic left ventricular pressure) reported for `CCCCC(=O)N(CCCN(C)CCc1ccc(OC)c(OC)c1)c1ccc(OC)c(OC)c1` = -6

Please fill in: % effect of Dhr^20 on LVP (systolic left ventricular pressure) reported for `COc1ccc(CCN(C)CCCN(C(=O)Oc2ccccc2)c2ccc(OC)c(OC)c2)cc1OC` = -10

Please fill in: % effect of Dhr^20 on LVP (systolic left ventricular pressure) reported for `CCCCOC(=O)N(CCCN(C)CCc1ccc(OC)c(OC)c1)c1ccc(OC)c(OC)c1` = -13

Please fill in: % effect of Dhr^20 on LVP (systolic left ventricular pressure) reported for COc1ccc(CCN(C)CCCN(Cc2ccccc2[N+](=O)[O-])c2ccc(OC)c(OC)c2)cc1OC [Example E1] = -2

Please fill in: % effect of Dhr^20 on LVP (systolic left ventricular pressure) reported for `COc1ccc(CCN(C)CCCN(Cc2ccccc2)c2ccc(OC)c(OC)c2)cc1OC` = -3

Please fill in: % effect of Dhr^20 on LVP (systolic left ventricular pressure) reported for `CCCCCN(CCCN(C)CCc1ccc(OC)c(OC)c1)c1ccc(OC)c(OC)c1` = -9

Please fill in: % effect of Dhr^20 on LVP (systolic left ventricular pressure) reported for `COc1ccc(CCN(C)CCCN(C(=O)CCc2ccccc2)c2ccc(OC)c(OC)c2)cc1OC` = -7

* * *

In this section, each of the compounds is paired with its reported Dhr^20 (i.v. dose which reduces heart rate by ca. 20%).
experiment: Haemodynamic profile in anaesthetized rats; type: in vivo, rat; design: unit not given here; details: i.v., anaesthetized rat
I'd appreciate a reply containing only the number, no unit.

Please fill in: Dhr^20 (i.v. dose which reduces heart rate by ca. 20%) reported for `COc1ccc(CCN(C)CCCN(C(=O)NCc2ccccc2)c2ccc(OC)c(OC)c2)cc1OC` = 1.6

Please fill in: Dhr^20 (i.v. dose which reduces heart rate by ca. 20%) reported for `COc1ccc(CCN(C)CCCN(C(=O)CCc2ccccc2)c2ccc(OC)c(OC)c2)cc1OC` = 1.6

Please fill in: Dhr^20 (i.v. dose which reduces heart rate by ca. 20%) reported for `CCCCC(=O)N(CCCN(C)CCc1ccc(OC)c(OC)c1)c1ccc(OC)c(OC)c1` = 1.6

Please fill in: Dhr^20 (i.v. dose which reduces heart rate by ca. 20%) reported for `COc1ccc(CCN(C)CCCN(C(=O)Oc2ccccc2)c2ccc(OC)c(OC)c2)cc1OC` = 0.8

Please fill in: Dhr^20 (i.v. dose which reduces heart rate by ca. 20%) reported for COc1ccc(CCN(C)CCN(C(=O)NC(C)c2ccccc2)c2ccc(OC)c(OC)c2)cc1OC (stereo not drawn) = 3.2

Please fill in: Dhr^20 (i.v. dose which reduces heart rate by ca. 20%) reported for `COc1ccc(CCN(C)CCCN(Cc2ccccc2)c2ccc(OC)c(OC)c2)cc1OC` = 3.2

Please fill in: Dhr^20 (i.v. dose which reduces heart rate by ca. 20%) reported for `COc1ccc(CCN(C)CCCN(c2ccc(OC)c(OC)c2)c2ncc([N+](=O)[O-])cc2[N+](=O)[O-])cc1OC` = 3.2

* * *

assay: Haemodynamic profile in anaesthetized rats; type: in vivo, rat; conditions: i.v. at Dhr^20, anaesthetized rat
quantity_kind: % effect of Dhr^20 on dp/dtmax (left ventricular dp/dt max) (%)
Field: numeric (%). Do not append units.

molecule	measured_number
CCCNC(=O)N(CCCN(C)CCc1ccc(OC)c(OC)c1)c1ccc(OC)c(OC)c1	-1

Please fill in: % effect of Dhr^20 on dp/dtmax (left ventricular dp/dt max) reported for `COc1ccc(CCN(C)CCCN(C(=O)CCc2ccccc2)c2ccc(OC)c(OC)c2)cc1OC` = -7

Please fill in: % effect of Dhr^20 on dp/dtmax (left ventricular dp/dt max) reported for `CCCCOC(=O)N(CCCN(C)CCc1ccc(OC)c(OC)c1)c1ccc(OC)c(OC)c1` = -8

Please fill in: % effect of Dhr^20 on dp/dtmax (left ventricular dp/dt max) reported for `CCCCC(=O)N(CCCN(C)CCc1ccc(OC)c(OC)c1)c1ccc(OC)c(OC)c1` = -6

* * *

assay: Haemodynamic profile in anaesthetized rats; assay type: in vivo, rat; parameters: unit not given here; settings: i.v., anaesthetized rat
In this section, each of the compounds is paired with its reported Dhr^20 (i.v. dose which reduces heart rate by ca. 20%).

Observe how each entry below is paired with its result.
compound	result
CCCCCN(CCCN(C)CCc1ccc(OC)c(OC)c1)c1ccc(OC)c(OC)c1 [Example E34]	1.6
CCCCOC(=O)N(CCCN(C)CCc1ccc(OC)c(OC)c1)c1ccc(OC)c(OC)c1 [Example E24]	3.2
COc1ccc(CCN(C)CCCN(Cc2ccc([N+](=O)[O-])cc2)c2ccc(OC)c(OC)c2)cc1OC [Example E6]	0.4
COc1ccc(CCN(C)CCCN(Cc2ccccc2[N+](=O)[O-])c2ccc(OC)c(OC)c2)cc1OC [Example E1]	1.6

Could you now look at the following compound, please?
Please fill in: Dhr^20 (i.v. dose which reduces heart rate by ca. 20%) reported for CCCNC(=O)N(CCCN(C)CCc1ccc(OC)c(OC)c1)c1ccc(OC)c(OC)c1 [Example E27] = 6.4

* * *

test: Haemodynamic profile in anaesthetized rats; format: in vivo, rat; conditions: i.v. at Dhr^20, anaesthetized rat
quantity_kind: % effect of Dhr^20 on dp/dtmax (left ventricular dp/dt max)
Form entry: enter the amount, then its unit.

Observe how each entry below is paired with its result.
molecule	result
COc1ccc(CCN(C)CCCN(Cc2ccccc2[N+](=O)[O-])c2ccc(OC)c(OC)c2)cc1OC [Example E1]	-3%
COc1ccc(CCN(C)CCCN(c2ccc(OC)c(OC)c2)c2ncc([N+](=O)[O-])cc2[N+](=O)[O-])cc1OC	-8%
COc1ccc(CCN(C)CCCN(Cc2ccccc2)c2ccc(OC)c(OC)c2)cc1OC	-12%

Please fill in: % effect of Dhr^20 on dp/dtmax (left ventricular dp/dt max) reported for `COc1ccc(CCN(C)CCCN(Cc2ccc([N+](=O)[O-])cc2)c2ccc(OC)c(OC)c2)cc1OC` = -5%
